# test-description: yeast display, Sf9 membrane polyspecificity reagent, FACS + sequencing; frameworks hold sequencing errors
quantity: polyreactivity (PSR sort gate)

Example results:
{"columns": ["residue-codes", "polyreactivity (PSR sort gate)"],
 "data": [
  ["QVQLVESGGGLVQAGGSLRLSCAASGSTFYYYAMGWYRQAPGKERELVAAIRLIGGTTYYADSVKGRFTISRDNAKNTVYLQMNSLKPEDTAVYYCNARYSTGYTSPSYWGVYKHYDSWGQGTQVTVSS", "low polyreactivity"],
  ["QVQLVESGGCLVQAGGSLRISCAASGLTFKGYTMGWYRQAPGKEREFVAAITGGVGSTYYADSVKGRFTISRDNAKNTVYVHMKSLQPEDTAVYYCNSVSYGYTDLYIFYTGYYYWGQGTQVTVSS", "low polyreactivity"],
  ["QVQLVESWGGLVQAGGSLRLSCAASGFTFVSYAMGWYRQAPGKERELVAAISKRGGSTSYADSVKGRFTISRDNAKNTVYLQMNSLKPEDTAVYYCYNRSYAWSPHVDYWGQGTQVTVSS", "high polyreactivity"],
  ["QVQLVESGGGLVQAGGSLRLSCAASGRIFVRYAMGWYRQAPGKERELVAAIRWSGGRTYYADSVKGRFTISRDNAKNTFYLQMNSLKPEDTAVYYCAVRYRDLFGYWGQGTQVTVSS", "high polyreactivity"]
]}

Now consider the entry below.
Reported polyreactivity (PSR sort gate) ( `QVQLVESGGGLVQAGGSLRLSCAASGSIFVRNVMGWYRQPPGKERELVATIRYRGGSTYYADSVKGRFTISRDYAKNTVYLQMNSLKPEDTAVYYCNARYLWADEYYYWGQGTQVTVSS` ) = low polyreactivity

These entries and their values trace back to the nanobody polyreactivity screen of Harvey et al. (2022).
